- Protocol notes: ATG_M_32_CIS: Attagene CIS-FACTORIAL HepG2 Assay for M32 Transcription Factor (Internal Marker) (AID 2282949);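 note: background control marker of the multiplexed CIS panel rather than a real target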
- Stated conditions: HepG2 Attagene cis-factorial M32 reporter, mRNA; actives raise or lower the signal
Activity calls are given as the source filed them. Rule for the calls: active = hit-call score of the fitted dose curve at least 0.9, where 1 is the maximum; inactive = score below 0.9.
Parameter: outcome

Field: example entries. Status: answers known.
* FC1(F)C=CC(F)(F)C1(F)F | inactive
* COc1ccccc1NC(=O)c1cc2ccccc2cc1O | inactive
* CCC1CO1 (centres undefined) | inactive
* COC(=O)C(F)(F)C(F)(F)C(F)(F)F | inactive
* COc1cc([N+](=O)[O-])ccc1N | inactive
* Cc1ccccc1OCC(=O)O | inactive
* FC(F)(F)C1(F)C(F)(F)C(F)(F)C(F)(F)C(F)(C(F)(F)F)C1(F)F (centres undefined) | inactive
* CN(CCO)S(=O)(=O)C(F)(F)C(F)(F)C(F)(F)C(F)(F)C(F)(F)C(F)(F)C(F)(F)C(F)(F)F | inactive
* COc1ccc(C#N)cc1 | inactive
* COc1cccc(O)c1 | inactive

Incoming: Item under review: OCC1CCC(CO)CC1 (centres undefined) . Reported outcome?
Outgoing: inactive

Incoming: Subsequent entry: O=S(=O)(c1ccc(OCc2ccccc2)cc1)c1ccccc1O
Outgoing: inactive

Incoming: Subsequent entry: CCc1ccccc1O
Outgoing: inactive

Incoming: Subsequent entry: CCCCC=O
Outgoing: inactive
